What TGI was measured for each of the following?
Tested on: UACC-257 melanoma
Measurement notes: NCI tumour cell line growth inhibition, 48 h

Inquiry: Query (compound): Cc1cccc2c(=O)c3c(O)cc(O)cc3n(C)c12 ; field requested: TGI
Reply text: > 100 µM

Inquiry: So what does the record say about TGI for OCCCN=C1CCCCC1 ?
Reply text: > 100 µM

Inquiry: Returns the measured TGI for the input compound. Input: COc1ccc(/C=C/C(=O)c2c(-c3ccccc3)nn(C)c(=O)c2N2CC2C)cc1 (stereo unspecified)
Reply text: > 100 µM

Inquiry: I have this compound here, CC(C)(C)OC(=O)Cn1ncn(NC(=O)Cc2ccccc2)c1=S , and I need its recorded TGI.
Reply text: > 10 µM

Inquiry: Tell me the measured TGI of CC1CC(=O)N(N(C)C)C2(C#N)C(=O)N=C(N)C12C#N (stereo unspecified) , please.
Reply text: > 100 µM

Inquiry: Any idea what TGI was measured for Cc1cc(N2CCC(N3CCCC3)CC2)nc(/N=C(\N)Nc2ccc(Cl)c(Cl)c2)n1 ?
Reply text: 3.54 µM

Inquiry: Look up TGI for this compound: NC(=NCCCCCCN=C(N)/N=C(\N)Nc1ccc(Cl)cc1)/N=C(\N)Nc1ccc(Cl)cc1
Reply text: 7.93 µM

Inquiry: # TGI lookup, item CNC(=O)OCc1cnc([N+](=O)[O-])n1C
Reply text: > 100 µM

Inquiry: Which value of TGI has been reported for COc1ccc2nc3ccccc3c(NCCNCCO)c2c1 in the records?
Reply text: 2.34 µM

Inquiry: What value of TGI has been recorded for this entry: NC1=Nc2cc(C(F)(F)F)ccc2Sc2nc3ccccc3n21
Reply text: > 100 µM

Inquiry: Which measured TGI value corresponds to Cc1cc(Cl)ccc1N=C1NC(=O)C(CC(=O)Nc2cccc(Cl)c2)S1 (stereo unspecified) ?
Reply text: > 100 µM

Inquiry: Which TGI is listed for N#C[S-].[La+3].c1ccc(-c2ccccn2)nc1.c1ccc(-c2ccccn2)nc1.c1ccc(-c2ccccn2)nc1 ?
Reply text: 65.2 µM

Inquiry: Dear colleague, I am looking for the recorded TGI of the following compound: CCN(CC)c1c(C(C)(C)C)c(=O)n2ccsc2c1OC(C)=O
Reply text: 30.7 µM

Inquiry: Tell me the measured TGI of CC1(C)CC(O)CC(C)(C)N1O , please.
Reply text: > 100 µM

Inquiry: I am curious: what TGI value has been reported for COc1cc(-c2nc(-c3ccccc3)c(-c3ccccc3)[nH]2)cc(OC)c1O ?
Reply text: 44.8 µM

Inquiry: Field request: TGI | item: Cc1nn2c(=O)c([N+](=O)[O-])c(/C=C/c3ccc(F)cc3)nc2s1
Reply text: 22.3 µM

Inquiry: Recorded TGI of Cc1ccc(C)c2c1C1CCCCC3(OCCCO3)C21O (stereo unspecified) , please.
Reply text: > 100 µM

Inquiry: I would be grateful if you could share the reported TGI for CCc1ccc2c(c1)C(=O)c1c-2n(CCCN)c(=O)c2cc(OC)c(OC)cc12 .
Reply text: 43.6 µM

Inquiry: # input compound: CCOC(=O)C(O)(CC1=NC(C(=O)OC)(C(=O)OC)C(c2cccc(C=O)c2)O1)C(=O)OCC (stereo unspecified) ; wanted: its TGI
Reply text: > 100 µM

Inquiry: Given the compound CC1=NN(c2nc(N)nc(CO)n2)C(C)(C)C1 , what is its reported TGI?
Reply text: > 100 µM

Inquiry: Consider the compound shown here: S=C(NCc1ccccn1)N/N=C/c1ccccn1 What is its recorded TGI?
Reply text: < 0.01 µM

Inquiry: Please look up its TGI: CCSC[C@@H]1C[C@](O)(c2ccccc2)[C@@H](c2ccccc2)O1
Reply text: > 100 µM

Inquiry: Value lookup for TGI; key = N[C@@H]1CCCN(c2c(Br)cnc3[nH]cc(NC(=O)C4CC4)c23)C1
Reply text: > 100 µM

Inquiry: GET /values?readout=TGI&item= CCN(CC)c1ccc(/C=N/NC(=O)Cc2ccc(Nc3ccnc(C(F)(F)F)c3)cc2)c(O)c1
Reply text: > 29.2 µM

Inquiry: # lookup: TGI of COc1cc(/C=C(\C)[N+](=O)[O-])cc(OC)c1
Reply text: 31 µM

Inquiry: Given the entry C[N+](C)(CCNc1ccc(NCC[N+](C)(C)Cc2ccc([N+](=O)[O-])cc2)c2c1C(=O)c1c(O)ccc(O)c1C2=O)Cc1ccc([N+](=O)[O-])cc1 , report its measured TGI.
Reply text: > 50 µM

Inquiry: Field request: TGI | item: Nc1nc(Cl)c(CO)c(NCC2(CO)CCC2)n1
Reply text: > 100 µM

Inquiry: Given the compound C=C1OC2OC(C)C(NC(=O)OCC(Cl)(Cl)Cl)C(OC(C)=O)C2O1 (stereo unspecified) , what is its reported TGI?
Reply text: > 100 µM

Inquiry: Name the recorded TGI for O=CN1CCN(c2ccc3ccc(=O)[nH]c3n2)CC1 .
Reply text: > 100 µM

Inquiry: Reported TGI, compound Cc1ccc(C2=CC(=O)/C(=C\C(=O)c3ccc(Br)cc3)O2)c(C)c1 : ____
Reply text: > 48.6 µM

Inquiry: I'd like to know its TGI. The compound in question is COC(=O)c1ccccc1CC1Cc2c(C)ccc(C)c2C1=O (stereo unspecified)
Reply text: 48.2 µM

Inquiry: Fill in the blank: the reported TGI of O=c1[nH]c2cc(Cl)ccc2nc1/C(=N\Nc1ccccc1)C(O)c1ccc2c(c1)OCO2 (stereo unspecified) is ____.
Reply text: > 100 µM

Inquiry: What value of TGI has been recorded for this entry: COc1ccc(-c2nsc3c2NC(=O)CC3c2ccsc2)cc1 (stereo unspecified)
Reply text: 38.4 µM

Inquiry: Item C[N+]1(C)CCCC(C#N)(c2ccccc2)CC1 (stereo unspecified) has what recorded TGI?
Reply text: > 100 µM

Inquiry: Find the recorded TGI belonging to CC(C)(O)C1COC2=C1C(=O)c1ccccc1C2=O (stereo unspecified) and report it.
Reply text: > 100 µM

Inquiry: Item under review: CC(C)c1ccc(O)c(Cc2cc(C(C)C)cc(Cc3cc(C(C)C)ccc3O)c2O)c1 . Reported TGI?
Reply text: 3.41 µM

----------
Test system: LOX IMVI melanoma
Measurement notes: NCI tumour cell line growth inhibition, 48 h
So I've got a bunch of molecules here, and I need their TGI values.
Write the answer as a number in µM, unit excluded.

Inquiry: TGI lookup needed for O=[N+]([O-])c1ccccc1N=Nc1c(O)[nH]c2c(Cl)cccc12 , thanks.
Reply text: 44.1

Inquiry: Can you share its TGI? I mean this molecule: Oc1c(Br)cc2c(c1Br)-c1c(c(O)c3c4c1=NCCC=4C=N3)NCC2
Reply text: 20.9

Inquiry: Find the recorded TGI belonging to CC(C)=CCC[C@@H](C)C1=C(O)C(N[C@H](C)c2ccccc2)=C(C)C(=O)C1=O and report it.
Reply text: 22.1

----------
Tested on: U251 CNS
Measurement notes: NCI tumour cell line growth inhibition, 48 h
Endpoint label: log10(TGI) (log10 of the value in µM)
Give log10 of TGI, with TGI taken in µM.

Inquiry: Request body: readout log10(TGI), system U251 CNS, query Cc1ccc(S(=O)(=O)OC[C@@]2(C)CC[C@]3(C)CC[C@]4(C)C(=C3C2)C=C[C@@H]2[C@@]3(C)CCCNC(C)(C)[C@@H]3CC[C@]24C)cc1 . Return the value.
Reply text: 0.50

Inquiry: Item CCN(CC)CCOC(COc1cc(C)cc(C)c1)COc1cc(C)cc(C)c1 with U251 CNS - log10(TGI)?
Reply text: 1.06

Inquiry: Requested read-out log10(TGI), target or system U251 CNS, entry Nc1nc(Sc2ccc([N+](=O)[O-])c3nonc23)c2[nH]cnc2n1
Reply text: 1.34

Inquiry: Notebook: pull reported log10(TGI) for U251 CNS, entry COc1cc(N=Nc2cc(Cc3ccc(N(C)C)cc3)c(N)cc2N(C)C)c2ncccc2c1
Reply text: 0.29

Inquiry: Form field - read-out: log10(TGI); system: U251 CNS; submitted item: COC(=O)[C@@H]1c2c(oc3cc(CO)cc(O)c3c2=O)C=C[C@H]1O
Reply text: 1.35

----------
Tested on: MDA-MB-231 breast
Measurement notes: NCI tumour cell line growth inhibition, 48 h
Endpoint label: TGI

Inquiry: Consider the molecule Cc1ccc(C(=O)N/N=C(\N=Nc2ccc([N+](=O)[O-])cc2)c2ccc(N(CCC#N)CCC#N)cc2C)cc1 and give its measured TGI.
Reply text: > 100 µM

Inquiry: I am curious: what TGI value has been reported for COc1cc(-c2nc(-c3ccccc3)c(-c3ccccc3)[nH]2)cc(OC)c1O ?
Reply text: 34.2 µM

Inquiry: So what does the record say about TGI for CCn1c(-c2nonc2N)nc2ccccc21 ?
Reply text: > 25 µM

Inquiry: Data request, read-out TGI, for Cc1ccc(S(=O)(=O)N/N=C2\C=CC3(CC2)C(=O)N(I)c2ccccc23)cc1 (stereo unspecified)
Reply text: > 100 µM

Inquiry: Value lookup for TGI; key = CO[C@@]12C[C@H](CNC(=O)c3ccc[nH]3)O[C@@H]1NC(=O)N2
Reply text: > 100 µM

Inquiry: # TGI lookup, item O=C(O)CNc1ccc2c(c1)Cc1cc(Br)ccc1-2
Reply text: > 68.9 µM

Inquiry: Which measured TGI value corresponds to Cc1ccc(-c2nc(NCCOCCOCCN)nc(N3CCN(c4ccccn4)CC3)n2)cc1 ?
Reply text: 29.8 µM

Inquiry: Using the record for Nc1cccc(-c2cc(=O)c3cc4c(cc3[nH]2)OCO4)c1 , report its TGI.
Reply text: 8.64 µM

Inquiry: Which TGI value is on record for C[C@]12CC[C@H]3[C@@H](CC=C4C[C@@H](O)CC[C@@]43C)[C@@H]1C/C(=C\c1cccnc1)[C@@H]2O ?
Reply text: 57.8 µM

Inquiry: Name the reported TGI value associated with the molecule Clc1cc(N/N=C(\c2ccccc2)c2ccccn2)ncn1
Reply text: 0.0669 µM

Inquiry: Could you share which TGI value was measured for COC(=O)/C=C(C)/C=C\COC1CCCCO1 (stereo unspecified) ?
Reply text: > 100 µM

Inquiry: Which TGI is listed for CN(C(=O)Cc1ccccc1)n1cn[n+](CC(=O)OC(C)(C)C)c1 ?
Reply text: > 10 µM

Inquiry: Please look up its TGI: Clc1ccc(C=Nc2ccc(-c3nc4ccccc4[nH]3)cc2)cc1
Reply text: > 100 µM

Inquiry: For the molecule COc1ccc(-c2nsc3c2NC(=O)CC3c2ccsc2)cc1 (stereo unspecified) , what TGI is on record?
Reply text: > 100 µM

Inquiry: # TGI lookup, item CCOC(=O)C1=C(O)CC(=O)N=C1N1CCCC1
Reply text: > 100 µM

Inquiry: Sample COC(=O)[C@@H]1c2c(oc3cc(CO)cc(O)c3c2=O)C=C[C@H]1O — what was its TGI?
Reply text: 27.5 µM
